target-or-system: Pyroglutamylated RF-amide peptide receptor (Homo sapiens, UniProt Q96P65)
Sequence (Q96P65 whole entry): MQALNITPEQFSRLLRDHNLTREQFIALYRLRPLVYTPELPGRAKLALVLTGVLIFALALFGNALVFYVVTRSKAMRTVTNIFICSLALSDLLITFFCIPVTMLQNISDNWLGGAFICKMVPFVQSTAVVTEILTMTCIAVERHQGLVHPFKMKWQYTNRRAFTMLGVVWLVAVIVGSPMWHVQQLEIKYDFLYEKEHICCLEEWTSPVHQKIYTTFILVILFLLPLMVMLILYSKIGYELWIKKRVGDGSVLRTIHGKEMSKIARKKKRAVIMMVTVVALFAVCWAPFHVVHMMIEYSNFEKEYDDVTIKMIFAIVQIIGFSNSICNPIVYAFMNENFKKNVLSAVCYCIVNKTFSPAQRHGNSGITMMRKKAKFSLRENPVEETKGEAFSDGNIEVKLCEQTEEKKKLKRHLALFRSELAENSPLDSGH
assay-explanation: Agonist activity at DYKDDDDK-flagged human GPR103 receptor expressed in CHO-K1 cells co-expressing G-protein alpha16 assessed as stimulation of calcium mobilization after 2 mins by fluorometric analysis
Residues, ends and D or L forms follow the SMILES beside them. *: point of attachment. Piv = CC(C)(C)C(=O)*
parameter: EC50 (nM)
Quick note: give the figure in nM, leave out the unit.

# compound, recorded-result
measured = [
    ("C[C@H](N)C(=O)NCC(=O)N[C@@H](Cc1ccccc1)C(=O)N[C@@H](CO)C(=O)N[C@@H](Cc1ccccc1)C(=O)N[C@@H](CCCNC(=N)N)C(=O)N[C@@H](Cc1ccccc1)C(N)=O (H-AGFSFRF-NH2)", 3350),
]

Read the next record carefully.
Bench note: what EC50 did CC(C)(C)C(=O)NCC(=O)NCC(=O)N[C@@H](Cc1ccccc1)C(=O)N[C@@H](CO)C(=O)N[C@@H](Cc1ccccc1)C(=O)N[C@@H](CCCN=C(N)N)C(=O)N[C@@H](Cc1ccccc1)C(N)=O (Piv-GGFSFRF-NH2) show?
2540

====

target-or-system: Pyroglutamylated RF-amide peptide receptor (Homo sapiens)
assay-explanation: Agonist activity at DYKDDDDK-flagged human GPR103 receptor expressed in CHO-K1 cells co-expressing G-protein alpha16 assessed as stimulation of calcium mobilization after 2 mins by fluorometric analysis
pEC50: −log10 of the molar value. Non-standard residues stand in square brackets, D forms with d. Residues, ends and D or L forms follow the SMILES beside them. Nva = CCC[C@H](N)C(=O)O; Abu = CC[C@H](N)C(=O)O
Please note: criterion met applies when pEC50 is 6 or greater, and criterion not met applies otherwise.

Solved cases below.
# molecule, target-or-system, class-label
data = [
    ("NCC(=O)NCC(=O)N[C@@H](Cc1ccccc1)C(=O)N[C@H](CO)C(=O)N[C@@H](Cc1ccccc1)C(=O)N[C@@H](CCCN=C(N)N)C(=O)N[C@@H](Cc1ccccc1)C(N)=O", "Pyroglutamylated RF-amide peptide receptor (Homo sapiens)", "criterion not met"),
    ("CC(C)C[C@H](NC(=O)[C@H](CCC(=O)O)NC(=O)[C@H](CCC(=O)O)NC(=O)[C@H](C)NC(=O)[C@H](CC(C)C)NC(=O)[C@@H](N)CC(N)=O)C(=O)N[C@@H](CC(N)=O)C(=O)NCC(=O)N[C@@H](Cc1ccc(O)cc1)C(=O)N[C@@H](CO)C(=O)N[C@@H](CCCNC(=N)N)C(=O)N[C@@H](CCCCN)C(=O)N[C@@H](CCCCN)C(=O)NCC(=O)NCC(=O)N[C@@H](Cc1ccccc1)C(=O)N[C@@H](CO)C(=O)N[C@@H](Cc1ccccc1)C(=O)N[C@@H](CCCNC(=N)N)C(=O)N[C@@H](Cc1ccccc1)C(N)=O (H-NLAEELNGYSRKKGGFSFRF-NH2)", "Pyroglutamylated RF-amide peptide receptor (Homo sapiens)", "criterion met"),
]

Check if pEC50 >= 6 (inclusive). Item: CCC[C@H](NC(=O)[C@H](Cc1ccccc1)NC(=O)CNC(=O)CN)C(=O)N[C@@H](Cc1ccccc1)C(=O)N[C@@H](CCCNC(=N)N)C(=O)N[C@@H](Cc1ccccc1)C(N)=O (H-GGF[Nva]FRF-NH2)
criterion met

What do you get for CC[C@H](NC(=O)[C@H](Cc1ccccc1)NC(=O)CNC(=O)CN)C(=O)N[C@@H](Cc1ccccc1)C(=O)N[C@@H](CCCNC(=N)N)C(=O)N[C@@H](Cc1ccccc1)C(N)=O (H-GGF[Abu]FRF-NH2) ?
criterion met
